# experiment notes: chemical genetic growth profiling, strain panel (AID 1159580);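 note: tested at 20 µM; growth read once vehicle control cultures reached saturation at 30 °C; 1 = growth at the plate median or of vehicle wells; lower values mean less growth of the strain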
# recorded conditions: S. cerevisiae deletion strains, growth OD, locus YPL051W, strain arl3, stronger effect = lower value
Screen size: about 5,500 compounds; about 2,000 (36%) were called active. Another 18% or so got no clear call; they are omitted. Some of the results follow.
observable: normalized growth
Give bare numbers.

Below: 8 molecules and their reported normalized growth.
| molecule | normalized growth |
| --- | --- |
| CC(C)CC1C(=O)N2CCC[C@H]2C2(O)O[C@](NC(=O)C3C=C4c5cccc6[nH]c(Br)c(c56)C[C@H]4N(C)C3)(C(C)C)C(=O)N12 (stereo partly specified) | 0.985 |
| CC(=O)OCC(CCn1cnc2cnc(N)nc21)COC(C)=O | 0.984 |
| CC(C)(N=NC(C)(C)C(=N)N)C(=N)N | 1.01 |
| O=C(/C=C/c1ccccc1)O[C@H]1C[C@@H](O)[C@]2(O)C=CO[C@@H](O[C@@H]3O[C@H](CO)[C@@H](O)[C@H](O)[C@H]3O)[C@H]12 | 1.01 |
| O=[N+]([O-])O[C@H]1CO[C@H]2[C@@H]1OC[C@H]2O[N+](=O)[O-] | 0.985 |
| COc1c2c(c(CC=C(C)C)c3oc(=O)c(-c4ccc(O)cc4)c(O)c13)OC(C)(C)C=C2 | 0.787 |
| C[CH2][Hg][S]c1ccccc1C(=O)O | 0.0607 |
| CCSC(=N)N | 1.02 |

Would you mind giving normalized growth for every molecule in the list below?
1. NC/C=C/C(=O)O
2. O=c1ccc2cc(O)c(O)cc2o1
3. CCN(CC)C(=S)SSC(=S)N(CC)CC
4. COc1ccc2c(c1)OC[C@@H](Cc1ccc(OC)c(OC)c1)[C@H]2O
5. O=C(O)c1cc(=O)c2ccc(Cl)cc2[nH]1

[0.989, 1, 0.0672, 0.997, 1.01]

Would you mind giving normalized growth for every molecule in the list below?
1. C/C=C(/C(=C/C)c1ccc(O)cc1)c1ccc(O)cc1
2. COc1ccc2c(c1)OC[C@@H](Cc1ccc(OC)c(OC)c1)[C@@H]2O

1. 0.956
2. 0.982

Would you mind giving normalized growth for every molecule in the list below?
1. CCOC(=O)c1ncn2c1CN(C)C(=O)c1cc(F)ccc1-2
2. COC1C(O)C(O)C(O)[C@@H](O)C1O (stereo partly specified)

[1.01, 0.97]

Would you mind giving normalized growth for every molecule in the list below?
1. O=C(O)c1ccccc1OP(=O)(O)O
2. CC[C@@H](CO)NCCN[C@@H](CC)CO

1: 0.991; 2: 1

* * *

# experiment notes: chemical genetic growth profiling, strain panel (AID 1159580);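 note: tested at 20 µM; growth read once vehicle control cultures reached saturation at 30 °C; 1 = growth at the plate median or of vehicle wells; lower values mean less growth of the strain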
# recorded conditions: S. cerevisiae deletion strains, growth OD, locus YLR058C, strain SHM2, stronger effect = lower value
About 2,000 (36%) of roughly 5,500 compounds were called active. About 18% were inconclusive and are not listed. Some of the results follow.
observable: normalized growth
Numbers only.

| compound | normalized growth |
| --- | --- |
| COC(=O)[C@H]1[C@H]2C[C@H]3c4[nH]c5ccccc5c4CCN3C[C@H]2CC[C@@H]1O | 1.02 |

Would you mind giving normalized growth for every compound in the list below?
1. CC(C)[N+](C)(CCOC(=O)C1c2ccccc2Oc2ccccc21)C(C)C
2. C=CCc1ccc2c(c1)OCO2
3. C1CCc2nnnn2CC1
4. CNc1ccccc1C(=O)N1CCc2c([nH]c3ccccc23)C1=O

[1.01, 1.01, 1.02, 1.01]

Would you mind giving normalized growth for every compound in the list below?
1. CC1(O)/C=C/C=C(\CO)C2CC(C)(C)C2(O)CC1 (stereo not drawn)
2. OCC(O)Cc1ccc2c(c1)OCO2 (stereo not drawn)
3. c1ccc(CN(CC2=NCCN2)c2ccccc2)cc1
4. O=C(O)COc1cc(Cl)c(Cl)cc1Cl
5. CCOC(=O)/C=C(\C)OP(=O)(OC)OC
6. N=c1nc(N2CCCCC2)cc(N)n1O

[1.01, 1.02, 1.01, 1.01, 0.981, 0.97]

Would you mind giving normalized growth for every compound in the list below?
1. COC(=O)COc1cc(Cl)c(Cl)cc1Cl
2. C[N+](C)(C)CC(=O)[O-]

[0.979, 1]
